System: 188146-221-R-J1-PDC complex spheroid viability;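 further: spheroids exposed to compounds for seven days; 100% = DMSO vehicle control viability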
Assay: Anticancer human tumor 188146-221-R-J1-PDC patient-derived colon adenocarcinoma cell line growth inhibition [POLQ]
Details: second compound 10 µM; first compound 1 µM; hits give low values
Description: Multicellular complex tumor spheroid response to Polymerase (POL) inhibitors (novobiocin, ART-558, RP6685) in combination with a variety of drugs and investigational agents in selected tumor cell lines The POL inhibitors (novobiocin, ART-558, and RP6685) were evaluated both individually and in combination with standard of care and investigational anticancer small molecules within a complex spheroid model of solid tumors. . […]
measured-endpoint: viability, T/C (%)
Answer format: numeric, % implied, no suffix.

[[record]]
compound = "C=CC(=O)N1CCN(c2nc(=O)n(-c3c(C)ccnc3C(C)C)c3nc(-c4c(O)cccc4F)c(F)cc23)C(C)C1 (stereo not given) + Nc1ccc(C#CCN(C(=O)Cc2ncc(C(F)(F)F)cc2C(F)(F)F)c2ccc(F)cc2)nn1"
assay_target = "188146-221-R-J1-PDC complex spheroid viability"
reported_value = 107


Which viability, T/C is reported for this compound? COc1ccc([C@@H](O)c2cc(-c3ncnc4cc(N5CCOCC5)ccc34)c(F)cc2Cl)nn1 + COC1C(OC(N)=O)C(O)C(Oc2ccc3c(O)c(NC(=O)c4ccc(O)c(CC=C(C)C)c4)c(=O)oc3c2C)OC1(C)C 63.4

Form field: reported viability, T/C of COc1cccc(OCCCN)c1-c1cc(Nc2cnc(C#N)cn2)n[nH]1 + Cc1cccc(N(C)C(=O)C2C(O)CCN2c2nc(C)cc(C(F)(F)F)c2C#N)c1 14.6

Fill in: viability, T/C of CCc1c2c(nc3ccc(O)cc13)-c1cc3c(c(=O)n1C2)COC(=O)[C@]3(O)CC + Cc1cccc(N(C)C(=O)C2C(O)CCN2c2nc(C)cc(C(F)(F)F)c2C#N)c1 is ___ 9.83

Look at this compound and give its reported viability, T/C. CC(C)n1c(=O)n(C)c2cnc3cc(F)c(-c4ccc(OCCCN5CCCCC5)nc4)cc3c21 + Nc1ccc(C#CCN(C(=O)Cc2ncc(C(F)(F)F)cc2C(F)(F)F)c2ccc(F)cc2)nn1 96.6

Form field: reported viability, T/C of CCc1cc2c(N3CCc4c(cc(Cn5ccnc5)cc4-c4cn(C)nc4C(F)(F)F)C3=O)cc(C)nc2c(OC)n1 + COC1C(OC(N)=O)C(O)C(Oc2ccc3c(O)c(NC(=O)c4ccc(O)c(CC=C(C)C)c4)c(=O)oc3c2C)OC1(C)C 78.5

Sample O=C(Nc1ccc(O)c(NS(=O)(=O)c2ccc(F)cc2)c1)c1ccc(-c2ccccc2)cc1 + Nc1ccc(C#CCN(C(=O)Cc2ncc(C(F)(F)F)cc2C(F)(F)F)c2ccc(F)cc2)nn1 — what was its viability, T/C? 99.1

I have this compound here, C#Cc1c(F)ccc2cc(O)cc(-c3ncc4c(N5CC6CCC(C5)N6)nc(OCC56CCCN5CC(F)C6)nc4c3F)c12 (stereo not given) + Cc1cccc(N(C)C(=O)C2C(O)CCN2c2nc(C)cc(C(F)(F)F)c2C#N)c1 , and I need its recorded viability, T/C. 90

Recorded viability, T/C of CC1COCCN1c1cc(-c2ccnn2C)c2ccnc(-c3ccn[nH]3)c2n1 (stereo not given) + Nc1ccc(C#CCN(C(=O)Cc2ncc(C(F)(F)F)cc2C(F)(F)F)c2ccc(F)cc2)nn1 , please. 19.8

Which viability, T/C is reported for this compound? COc1cccc2c1C(=O)c1c(O)c3c(c(O)c1C2=O)CC(O)(C(=O)CO)CC3OC1CC(N)C(O)C(C)O1 (stereo not given) + COC1C(OC(N)=O)C(O)C(Oc2ccc3c(O)c(NC(=O)c4ccc(O)c(CC=C(C)C)c4)c(=O)oc3c2C)OC1(C)C 9.76
